- ASSAYED_SYSTEM: UniProt P45452
Non-standard residues stand in square brackets, D forms with d. Residues, ends and D or L forms follow the SMILES beside them. *: point of attachment. Benzoyl(4-OPh(4-CONH2)) = NC(=O)c1ccc(Oc2ccc(C(=O)*)cc2)cc1; Benzenesulfonyl(4-OPh) = O=S(=O)(c1ccc(Oc2ccccc2)cc1)*; X1 = O=C(CCCCS(=O)(=O)c1ccc(Oc2ccccc2)cc1)*; NMeE = CN[C@@H](CCC(=O)O)C(=O)O; β3hP = O=C(O)C[C@@H]1CCCN1; Dab = NCC[C@H](N)C(=O)O; GABA = NCCCC(=O)O
Exercise: state measured pIC50 for each of the compounds provided.
Numbers only, as −log10 of the molar value.

Would you be so kind as to report pIC50 for each listed record?
1. CSCC[C@H](NC(=O)[C@H](CC(C)C)NC(=O)[C@H](C)NC(=O)[C@H](CC(=O)O)NC(=O)[C@H](CC(N)=O)NC(=O)CCCCS(=O)(=O)c1ccc(Oc2ccccc2)cc1)C(=O)N1CCC[C@H]1C(N)=O (X1-NDALMP-NH2)
2. CC(C)C[C@H](NC(=O)[C@H](CCN)NC(=O)[C@H](CC(=O)O)NC(=O)[C@H](CC(N)=O)NC(=O)CCCNC(=O)c1ccc(Oc2ccc(C(N)=O)cc2)cc1)C(=O)N(C)[C@@H](CCC(=O)O)C(=O)N1CCC[C@H]1CC(N)=O ({Benzoyl(4-OPh(4-CONH2))-GABA}-ND[Dab]L[NMeE][β3hP]-NH2)
3. CC(C)C[C@H](NC(=O)[C@H](CCN)NC(=O)[C@H](CC(=O)O)NC(=O)[C@H](CC(N)=O)NC(=O)CCCNS(=O)(=O)c1ccc(Oc2ccccc2)cc1)C(=O)N(C)[C@@H](CCC(=O)O)C(=O)N1CCC[C@H]1CC(N)=O ({Benzenesulfonyl(4-OPh)-GABA}-ND[Dab]L[NMeE][β3hP]-NH2)

Response line:
7.24
6.27
6.44
